Target: recombinant human Muscarinic M1 receptor (Homo sapiens (Human))
Sequence (P11229 whole entry): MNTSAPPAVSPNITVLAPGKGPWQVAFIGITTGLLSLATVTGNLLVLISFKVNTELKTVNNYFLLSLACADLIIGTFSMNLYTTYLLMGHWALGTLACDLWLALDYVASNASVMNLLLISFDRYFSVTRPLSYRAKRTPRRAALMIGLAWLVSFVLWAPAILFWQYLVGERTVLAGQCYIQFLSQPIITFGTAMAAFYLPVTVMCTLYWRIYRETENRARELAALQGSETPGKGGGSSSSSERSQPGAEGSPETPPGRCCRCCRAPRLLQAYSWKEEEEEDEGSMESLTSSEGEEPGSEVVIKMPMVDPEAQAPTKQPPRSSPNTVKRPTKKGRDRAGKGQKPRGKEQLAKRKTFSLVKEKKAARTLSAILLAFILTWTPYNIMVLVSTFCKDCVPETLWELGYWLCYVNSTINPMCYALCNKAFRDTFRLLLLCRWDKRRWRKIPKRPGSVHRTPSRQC
Assay: Allosteric potency EC50, CHO cells with pCRE-Luc reporter, in presence of EC20 of acetylcholine
Settings: 4 hours
Counter-ions that a name gives are not always drawn.
Reported EC50 values are given for each entry in this list.
attribute-measured: EC50 (nM)

In [3]: df
Out[3]:
                                    compound  attribute_measured  quantitative_result
 0  O=C(N[C@H]1CCCC[C@@H]1O)C1=CN(Cc2cccc(F)c2F)c2cccc(F)c2O1                EC50                  140
 1  COc1ccc(CN2C=C(C(=O)N[C@H]3CCCC[C@@H]3O)Sc3ccccc32)cc1                EC50                  145
 2  O=C(Nc1ccccc1CO)C1=CN(Cc2cccc(F)c2F)c2ccccc2O1                EC50                 1580
 3  O=C(N[C@H]1CCCC[C@@H]1O)C1=CN(Cc2ccccc2)c2ccccc2[S+]1[O-] (some centres unmarked)                EC50                 1400
 4  O=C(NC1CCNCC1F)C1=CN(Cc2ccccc2F)c2cccc(F)c2O1 (centres unmarked) [Example 73, hydrochloride]                EC50                 2370
 5  O=C(N[C@@H]1CCC[C@H]1O)C1=CN(Cc2ccccc2F)c2ccccc2O1                EC50                 1530
 6  O=C(Nc1ccccc1CO)C1=CN(Cc2ccccc2F)c2ccccc2O1                EC50                 1620
 7  O=C(N[C@H]1CCCC[C@@H]1O)C1=CN(Cc2cccnc2)c2ccccc2O1                EC50                  353
 8  O=C(N[C@H]1CCCC[C@@H]1O)C1=CN(Cc2ccncc2F)c2ccccc2O1                EC50                 1520
 9  O=C(N[C@H]1CCCC[C@@H]1O)C1=CN(Cc2ccnc(-c3ccccc3)c2)c2cccc(F)c2O1                EC50                  230
10  O=C(Nc1ccccc1CO)C1=CN(Cc2cccc(F)c2F)c2cccc(F)c2O1                EC50                 1280
11  O=C(N[C@H]1CCCC[C@@H]1O)C1=CN(Cc2ccccc2)c2ncccc2O1                EC50                  955
12  COc1ccc(CN2C=C(C(=O)NCC(C)(C)O)Oc3ccccc32)cc1                EC50                 1510
13  O=C(N[C@H]1CCCC[C@@H]1O)C1=CN(Cc2ccc(Cl)nc2)c2ccccc2[S+]1[O-] (some centres unmarked)                EC50                 1060
14  CC(C)C(CO)NC(=O)C1=CN(Cc2ccccc2F)c2cccc(F)c2O1 (centres unmarked)                EC50                 1320
15  O=C(N[C@@H]1CCC[C@H]1O)C1=CN(Cc2cccc(F)c2F)c2cccc(F)c2O1                EC50                  686
16  COc1cccc(CN2C=C(C(=O)NCC(C)(C)O)Oc3ccccc32)c1                EC50                 1550
